# Assay protocol: Stability experiment of final compound: solid in sealed vial kept in oven, purity checked by UPLC
# Format: physicochemical
# Assay conditions: solid before storage; purity by UPLC
Structures can show the parent of a compound that is named as a salt.
Measurement label: Initial Purity (%)

Molecule	Obs value
CNc1cc(F)c(F)c2c1[nH]c1ncc(-c3cnc4c(c3)c(=O)c(C(=O)O)cn4C)c(N3CC[C@H]4CN(C)C[C@H]43)c12 [Freebase of Example 8]	97.96
CNc1cc(F)c(C#N)c2c1[nH]c1ncc(-c3cnc4c(c3)c(=O)c(C(=O)O)cn4C)c(N3CC[C@H]4CN(C)C[C@H]43)c12 [Freebase of Example 4]	99.16
CNc1cc(F)c(F)c2c1[nH]c1ncc(-c3cnc4c(c3)c(=O)c(C(=O)O)cn4C)c(N3CC[C@H]4CN(C)C[C@H]43)c12 [HCl salt compound (Example 8), dihydrochloride]	97.80
CNc1cc(F)c(C#N)c2c1[nH]c1ncc(-c3cnc4c(c3)c(=O)c(C(=O)O)cn4C)c(N3CC[C@H]4CN(C)C[C@H]43)c12 [HCl salt compound (Example 4), dihydrochloride]	98.50

Numbers sourced from patent US20230242553A1.
